Measured self-splicing fitness (ln) of individual entries
assay: self-splicing fitness, log relative to wild type (ln ratio); higher = more splicing; Tetrahymena group I intron in knt gene, E. coli kanamycin selection, DiMSum; sequences stand for … in CUCUCU…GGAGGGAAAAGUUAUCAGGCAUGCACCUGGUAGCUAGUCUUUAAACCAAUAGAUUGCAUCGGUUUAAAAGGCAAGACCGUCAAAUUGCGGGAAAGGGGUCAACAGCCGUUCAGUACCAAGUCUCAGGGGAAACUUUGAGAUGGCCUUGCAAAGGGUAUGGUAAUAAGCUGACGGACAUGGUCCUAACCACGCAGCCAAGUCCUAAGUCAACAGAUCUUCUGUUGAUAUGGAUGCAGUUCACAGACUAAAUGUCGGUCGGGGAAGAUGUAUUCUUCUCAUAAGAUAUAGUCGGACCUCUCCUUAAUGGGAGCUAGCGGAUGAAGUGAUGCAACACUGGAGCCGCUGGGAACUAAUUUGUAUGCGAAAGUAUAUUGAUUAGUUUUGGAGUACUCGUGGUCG; settings: 30 °C;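 note: selection with 25 µg/mL kanamycin versus none on LB agar overnight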
Reply briefly: the number, and no unit.

Would you kindly share the measured self-splicing fitness (ln) for CCGAAGCAAUAUUACGCAGG ? -2.04

Input CUACAGCAAUAUUACGCGGA -3.06

----------
Measured self-splicing fitness (ln) of individual entries
experiment: self-splicing fitness, log relative to wild type (ln ratio); higher = more splicing; Tetrahymena group I intron in knt gene, E. coli kanamycin selection, DiMSum; sequences stand for … in CUCUCU…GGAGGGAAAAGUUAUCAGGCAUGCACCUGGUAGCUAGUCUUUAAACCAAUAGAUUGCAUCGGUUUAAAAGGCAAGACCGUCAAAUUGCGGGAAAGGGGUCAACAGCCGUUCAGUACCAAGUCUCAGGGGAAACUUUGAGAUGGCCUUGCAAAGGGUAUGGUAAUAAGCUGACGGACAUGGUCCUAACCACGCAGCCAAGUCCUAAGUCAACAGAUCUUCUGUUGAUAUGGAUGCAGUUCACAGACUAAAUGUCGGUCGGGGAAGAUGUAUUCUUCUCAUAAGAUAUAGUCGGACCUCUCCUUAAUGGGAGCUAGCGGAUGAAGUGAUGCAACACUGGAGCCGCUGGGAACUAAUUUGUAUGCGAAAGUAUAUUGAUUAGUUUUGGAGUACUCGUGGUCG; details: 37 °C
Reply briefly: the number, and no unit.

Example cases with answers are listed next.
Would you kindly share the measured self-splicing fitness (ln) for GUCUAGCAAUAUUACGGCGA ? -0.132

Input UCCGAGCAAUAUUACGAAGA -1.12

Input GGGCAGCAAUAUUACGGGCC -2.66

Continuing:
Would you kindly share the measured self-splicing fitness (ln) for GGGAAGCAAUAUUACGCGAA ? -0.969

Input UCAGAGCAAUAUUACGCGUA -0.569

Input CUGUAGCAAUAUUACGUUAU -2.83

Input ACAAAGCAAUAUUACGAUUC -0.67

Input GGCCAGCAAUAUUACGCAGC -1.88

Input AACUAGCAAUAUUACGGCGA -0.155

Input CCCAAGCAAUAUUACGCCGG -2.35

----------
assay: self-splicing fitness, log relative to wild type (ln ratio); higher = more splicing; Tetrahymena group I intron in knt gene, E. coli kanamycin selection, DiMSum; sequences stand for … in CUCUCU…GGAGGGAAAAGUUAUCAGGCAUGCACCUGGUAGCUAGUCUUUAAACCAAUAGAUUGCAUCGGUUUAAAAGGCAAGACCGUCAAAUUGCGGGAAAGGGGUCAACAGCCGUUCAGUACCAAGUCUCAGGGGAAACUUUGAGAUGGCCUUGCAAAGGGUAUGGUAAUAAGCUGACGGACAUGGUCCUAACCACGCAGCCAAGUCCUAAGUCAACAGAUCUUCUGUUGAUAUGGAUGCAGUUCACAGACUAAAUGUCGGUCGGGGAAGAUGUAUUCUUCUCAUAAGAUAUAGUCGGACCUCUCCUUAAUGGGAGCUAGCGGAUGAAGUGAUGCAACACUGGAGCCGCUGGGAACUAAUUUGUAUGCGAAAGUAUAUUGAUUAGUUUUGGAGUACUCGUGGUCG; conditions: 30 °C
Measure: self-splicing fitness (ln)
Reply briefly: the number, and no unit.

Example cases with answers are listed next.
Would you kindly share the measured self-splicing fitness (ln) for CUCAAGCAAUAUUACGGGAC ? -3.7

Input CAGCAGCAAUAUUACGGGAA -3.17

Input UGUGAGCAAUAUUACGUCCG -0.363

Input UCGGAGCAAUAUUACGUGGU -3.59

Input GCAUAGCAAUAUUACGGCGG -2.63

Input CACAAGCAAUAUUACGAGCA -2.96

Input GCCUAGCAAUAUUACGCGUU -0.166

Please examine the following record next.
Would you kindly share the measured self-splicing fitness (ln) for UCGUAGCAAUAUUACGCAUU ? -3.24
